- test details: cell number (cell viability) in A549 cells, Hoechst 33342, automated microscopy
- Type: cell-based, human
- particulars: human, A549 cells (infected with rubella virus RA27/3); A549 cells, cell number; read-out: half-maximal cytotoxicity concentration (CC50)
measured property: CC50 at 48 h

>>> meas_value("C[C@@]1(O)[C@H](O)[C@@H](CO)O[C@H]1n1ccc(N)nc1=O")
"> 20 µM"

====

- Tested on: A549 cells
- test details: ATPLite assay of cytotoxicity in A549 cells
- Assay type: cell-based, human
- particulars: Homo sapiens; A549 cells; read-out: IC50 of ATP content depletion (ATPLite)
measured property: IC50 (µM)

>>> meas_value("O=C(/C=C/c1cccnc1)NCCCCC1CCN(C(=O)c2ccccc2)CC1 [daporinad]")
0.01
